Test system: Escherichia coli
Assay: Antibacterial activity against extended-spectrum beta-lactamase producing Escherichia coli isolate 14-11 after 18 hrs by agar dilution method
Type: functional
Conditions: isolate 14-11, 18 h
Bridge positions count the residues as written; N and C are the ends. Square brackets hold non-standard residues; d marks the D form. Peptide text beside a SMILES is read from it. * marks the point of attachment. Heptanoyl(6-Me) = CC(C)CCCCC(=O)*; X1 = CC[C@H](C)CCCCC(=O)*; Dab = NCC[C@H](N)C(=O)O; Nva = CCC[C@H](N)C(=O)O
assay.readout: MIC

Reading of MIC for CC[C@H](C)CCCCC(=O)N[C@@H](CCN)C(=O)N[C@H](C(=O)N[C@H](CO)C(=O)N[C@H]1CCNC(=O)[C@H]([C@@H](C)O)NC(=O)[C@H](CCN)NC(=O)[C@H](CCN)NC(=O)[C@H]([C@@H](C)O)NC(=O)[C@@H](CC(C)C)NC(=O)[C@H](CCN)NC1=O)[C@@H](C)O (X1-[Dab]T[dS][Dab][Dab][dL]T[Dab][Dab]T; lactam 4-C) with Escherichia coli: 0.25 µg/mL

Reading of MIC for `CC[C@H](C)[C@@H]1NC(=O)[C@@H](CC(C)C)NC(=O)[C@H](CCN)NC(=O)[C@@H](NC(=O)[C@H](CCN)NC(=O)[C@@H](NC(=O)[C@H](CCN)NC(=O)CCCCC(C)C)[C@@H](C)O)CCNC(=O)[C@H]([C@@H](C)O)NC(=O)[C@H](CCN)NC(=O)[C@H](CCN)NC1=O` with Escherichia coli: 0.5 µg/mL

Reading of MIC for `CC(C)CCCCC(=O)N[C@@H](CCN)C(=O)N[C@H](C(=O)N[C@@H](CCN)C(=O)N[C@H]1CCNC(=O)[C@H]([C@@H](C)O)NC(=O)[C@H](CCN)NC(=O)[C@H](CCN)NC(=O)[C@H]([C@@H](C)O)NC(=O)[C@@H](CC(C)C)NC(=O)[C@H](CCN)NC1=O)[C@@H](C)O` with Escherichia coli: 0.25 µg/mL

Reading of MIC for CC[C@H](C)CCCCC(=O)N[C@@H](CCN)C(=O)N[C@H](C(=O)N[C@@H](CCN)C(=O)N[C@H]1CCNC(=O)[C@H]([C@@H](C)O)NC(=O)[C@H](CCN)NC(=O)[C@H](CCN)NC(=O)[C@H]([C@@H](C)O)NC(=O)[C@@H](CC(C)C)NC(=O)[C@H](CCN)NC1=O)[C@@H](C)O (X1-[Dab]T[Dab][Dab][Dab][dL]T[Dab][Dab]T; lactam 4-C) with Escherichia coli: ≤ 0.03 µg/mL

Reading of MIC for CC(C)CCCCC(=O)N[C@@H](CCN)C(=O)N[C@H](C(=O)N[C@H](CO)C(=O)N[C@H]1CCNC(=O)[C@H]([C@@H](C)O)NC(=O)[C@H](CCN)NC(=O)[C@H](CCN)NC(=O)[C@H]([C@@H](C)O)NC(=O)[C@@H](Cc2ccccc2)NC(=O)[C@H](CCN)NC1=O)[C@@H](C)O ({Heptanoyl(6-Me)}-[Dab]T[dS][Dab][Dab][dF]T[Dab][Dab]T; lactam 4-C) with Escherichia coli: 0.25 µg/mL

Reading of MIC for CCC[C@@H]1NC(=O)[C@@H](CC(C)C)NC(=O)[C@H](CCN)NC(=O)[C@@H](NC(=O)[C@H](CCN)NC(=O)[C@@H](NC(=O)[C@H](CCN)NC(=O)CCCCC(C)C)[C@@H](C)O)CCNC(=O)[C@H]([C@@H](C)O)NC(=O)[C@H](CCN)NC(=O)[C@H](CCN)NC1=O ({Heptanoyl(6-Me)}-[Dab]T[Dab][Dab][Dab][dL][Nva][Dab][Dab]T; lactam 4-C) with Escherichia coli: 0.25 µg/mL

----------
Listed below: MIC values for each entry.
System: Escherichia coli
Assay: Antibacterial activity against Escherichia coli ATCC 25922 after 18 hrs by agar dilution method
Type: functional
Conditions: ATCC 25922, 18 h
Bridge positions count the residues as written; N and C are the ends. Square brackets hold non-standard residues; d marks the D form. Peptide text beside a SMILES is read from it. * marks the point of attachment. Heptanoyl(6-Me) = CC(C)CCCCC(=O)*; X1 = CC[C@H](C)CCCCC(=O)*; Heptanoyl = CCCCCCC(=O)*; Dab = NCC[C@H](N)C(=O)O
Lab book: enter the figure in µg/mL, no units written.

Solved cases (5 shown):
[[record]]
molecule = "CC[C@H](C)CCCCC(=O)N[C@@H](CCN)C(=O)N[C@H](C(=O)N[C@@H](CCN)C(=O)N[C@H]1CCNC(=O)[C@H]([C@@H](C)O)NC(=O)[C@H](CCN)NC(=O)[C@H](CCN)NC(=O)[C@H]([C@@H](C)O)NC(=O)[C@@H](CC(C)C)NC(=O)[C@H](CCN)NC1=O)[C@@H](C)O (X1-[Dab]T[Dab][Dab][Dab][dL]T[Dab][Dab]T; lactam 4-C)"
target_desc = "Escherichia coli"
measured_value = 0.25

[[record]]
molecule = "CC[C@H](C)CCCCC(=O)N[C@@H](CCN)C(=O)N[C@H](C(=O)N[C@H](CO)C(=O)N[C@H]1CCNC(=O)[C@H]([C@@H](C)O)NC(=O)[C@H](CCN)NC(=O)[C@H](CCN)NC(=O)[C@H]([C@@H](C)O)NC(=O)[C@@H](Cc2ccccc2)NC(=O)[C@H](CCN)NC1=O)[C@@H](C)O"
target_desc = "Escherichia coli"
measured_value = 0.25

[[record]]
molecule = "CCCCCCC(=O)N[C@@H](CCN)C(=O)N[C@H](C(=O)N[C@@H](CCN)C(=O)N[C@H]1CCNC(=O)[C@H]([C@@H](C)O)NC(=O)[C@H](CCN)NC(=O)[C@H](CCN)NC(=O)[C@H](CC(C)C)NC(=O)[C@@H](CC(C)C)NC(=O)[C@H](CCN)NC1=O)[C@@H](C)O (Heptanoyl-[Dab]T[Dab][Dab][Dab][dL]L[Dab][Dab]T; lactam 4-C)"
target_desc = "Escherichia coli"
measured_value = 1

[[record]]
molecule = "CC(C)CCCCC(=O)N[C@@H](CCN)C(=O)N[C@H](C(=O)N[C@@H](CCN)C(=O)N[C@H]1CCNC(=O)[C@H]([C@@H](C)O)NC(=O)[C@H](CCN)NC(=O)[C@H](CCN)NC(=O)[C@H](C(C)C)NC(=O)[C@@H](CC(C)C)NC(=O)[C@H](CCN)NC1=O)[C@@H](C)O ({Heptanoyl(6-Me)}-[Dab]T[Dab][Dab][Dab][dL]V[Dab][Dab]T; lactam 4-C)"
target_desc = "Escherichia coli"
measured_value = 0.5

[[record]]
molecule = "CC(C)CCCCC(=O)N[C@@H](CCN)C(=O)N[C@H](C(=O)N[C@@H](CCN)C(=O)N[C@H]1CCNC(=O)[C@H]([C@@H](C)O)NC(=O)[C@H](CCN)NC(=O)[C@H](CCN)NC(=O)[C@H](CC(C)C)NC(=O)[C@@H](CC(C)C)NC(=O)[C@H](CCN)NC1=O)[C@@H](C)O [COLISTIN B] ({Heptanoyl(6-Me)}-[Dab]T[Dab][Dab][Dab][dL]L[Dab][Dab]T; lactam 4-C)"
target_desc = "Escherichia coli"
measured_value = 0.5


The molecule listed as CC(C)CCCCC(=O)N[C@@H](CCN)C(=O)N[C@H](C(=O)N[C@@H](CCN)C(=O)N[C@H]1CCNC(=O)[C@H]([C@@H](C)O)NC(=O)[C@H](CCN)NC(=O)[C@H](CCN)NC(=O)[C@H](CC(C)C)NC(=O)[C@@H](Cc2ccccc2)NC(=O)[C@H](CCN)NC1=O)[C@@H](C)O [POLYMYXIN B2] ({Heptanoyl(6-Me)}-[Dab]T[Dab][Dab][Dab][dF]L[Dab][Dab]T; lactam 4-C) has a reported MIC of 0.5

----------
Tested on: Escherichia coli
Experiment: Antibacterial activity against extended-spectrum beta-lactamase producing Escherichia coli isolate 14-11 after 18 hrs by agar dilution method
Type: functional
Details: isolate 14-11, 18 h
Bridge positions count the residues as written; N and C are the ends. Square brackets hold non-standard residues; d marks the D form. Peptide text beside a SMILES is read from it. * marks the point of attachment. Heptanoyl(6-Me) = CC(C)CCCCC(=O)*; Nonanoyl = CCCCCCCCC(=O)*; X1 = CC[C@H](C)CCCCC(=O)*; Dab = NCC[C@H](N)C(=O)O
assay.readout: MIC (µg/mL)
Lab book: enter the figure in µg/mL, no units written.

[[record]]
compound = "CCCCCCCCC(=O)N[C@@H](CCN)C(=O)N[C@H](C(=O)N[C@@H](CCN)C(=O)N[C@H]1CCNC(=O)[C@H]([C@@H](C)O)NC(=O)[C@H](CCN)NC(=O)[C@H](CCN)NC(=O)[C@H](CC(C)C)NC(=O)[C@@H](Cc2ccccc2)NC(=O)[C@H](CCN)NC1=O)[C@@H](C)O [POLYMYXIN B5] (Nonanoyl-[Dab]T[Dab][Dab][Dab][dF]L[Dab][Dab]T; lactam 4-C)"
measured_value = 2


The compound listed as CC(C)CCCCC(=O)N[C@@H](CCN)C(=O)N[C@H](C(=O)N[C@@H](CCN)C(=O)N[C@H]1CCNC(=O)[C@H]([C@@H](C)O)NC(=O)[C@H](CCN)NC(=O)[C@H](CCN)NC(=O)[C@H](CC(C)C)NC(=O)[C@@H](CC(C)C)NC(=O)[C@H](CCN)NC1=O)[C@@H](C)O [COLISTIN B] ({Heptanoyl(6-Me)}-[Dab]T[Dab][Dab][Dab][dL]L[Dab][Dab]T; lactam 4-C) has a reported MIC of 0.5

The compound listed as CC[C@H](C)CCCCC(=O)N[C@@H](CCN)C(=O)N[C@H](C(=O)N[C@@H](CCN)C(=O)N[C@H]1CCNC(=O)[C@H]([C@@H](C)O)NC(=O)[C@H](CCN)NC(=O)[C@H](CCN)NC(=O)[C@H](CC(C)C)NC(=O)[C@@H](Cc2ccccc2)NC(=O)[C@H](CCN)NC1=O)[C@@H](C)O (X1-[Dab]T[Dab][Dab][Dab][dF]L[Dab][Dab]T; lactam 4-C) has a reported MIC of 0.5

The compound listed as CC(C)CCCCC(=O)N[C@@H](CCN)C(=O)N[C@H](C(=O)N[C@@H](CCN)C(=O)N[C@H]1CCNC(=O)[C@H]([C@@H](C)O)NC(=O)[C@H](CCN)NC(=O)[C@H](CCN)NC(=O)[C@H](CC(C)C)NC(=O)[C@@H](Cc2ccccc2)NC(=O)[C@H](CCN)NC1=O)[C@@H](C)O [POLYMYXIN B2] ({Heptanoyl(6-Me)}-[Dab]T[Dab][Dab][Dab][dF]L[Dab][Dab]T; lactam 4-C) has a reported MIC of 0.5

This collection of values is drawn from ChEMBL document CHEMBL4118103.
